# test target: PBP3 from Acinetobacter baumannii (ATCC 19606) (Acinetobacter baumannii, UniProt A0ABX6CK25)
# Sequence (A0ABX6CK25 64-610): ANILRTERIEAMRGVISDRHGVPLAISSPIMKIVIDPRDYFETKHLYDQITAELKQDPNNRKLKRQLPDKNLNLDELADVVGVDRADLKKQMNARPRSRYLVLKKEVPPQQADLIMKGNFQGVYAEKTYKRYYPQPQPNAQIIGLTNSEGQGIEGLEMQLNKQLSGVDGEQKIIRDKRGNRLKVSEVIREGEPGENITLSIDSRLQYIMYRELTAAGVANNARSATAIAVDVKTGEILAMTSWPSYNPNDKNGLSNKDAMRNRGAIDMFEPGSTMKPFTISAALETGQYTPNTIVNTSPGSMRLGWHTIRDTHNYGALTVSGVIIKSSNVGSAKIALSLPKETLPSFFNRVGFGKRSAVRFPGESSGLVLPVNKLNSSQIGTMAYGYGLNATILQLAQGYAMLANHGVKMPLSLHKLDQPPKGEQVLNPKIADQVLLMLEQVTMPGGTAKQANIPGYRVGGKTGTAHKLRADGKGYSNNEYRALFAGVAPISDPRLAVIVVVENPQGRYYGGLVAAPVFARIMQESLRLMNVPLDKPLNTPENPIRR
measurement kind: IC50

# example entries with known answers
compound: O=C(NCCCN1CCN(C(=O)NC(C(=O)N[C@H]2Cc3ccc(F)c(C(=O)O)c3OB2O)c2cc(F)c(O)c(O)c2Cl)C(=O)C1=O)c1c(F)cncc1Cl (some centres unmarked) [Example 403]
IC50: < 10 µM
--
compound: O=C(O)c1c(F)ccc2c1OB(O)[C@@H](NC(=O)C(NC(=O)N1CCN(C3CCN(S(=O)(=O)c4cccc(O)c4)CC3)C(=O)C1=O)c1cc(F)c(O)c(O)c1Cl)C2 (some centres unmarked) [Example 428]
IC50: < 10 µM
--
compound: O=C(O)c1c(F)ccc2c1OB(O)[C@@H](NC(=O)C(NC(=O)N1CCN(C3CCN(C(=O)Nc4ccc(F)c(O)c4F)CC3)C(=O)C1=O)c1cc(F)c(O)c(O)c1Cl)C2 (some centres unmarked) [Example 486]
IC50: < 10 µM
--
compound: O=C(O)c1c(F)ccc2c1OB(O)[C@@H](NC(=O)[C@H](NC(=O)N1CCN(C3CCN(C(=O)c4cc(O)ccc4Cl)CC3)C1=O)c1cc(F)c(O)c(O)c1Cl)C2 (single isomer, unassigned) [Example 434]
IC50: < 10 µM

Kindly consider the entry below.
[in] Which IC50 value belongs to O=C(NCCCN1CCN(C(=O)NC(C(=O)N[C@H]2Cc3ccc(F)c(C(=O)O)c3OB2O)c2cc(F)c(O)c(O)c2Cl)C(=O)C1=O)c1cc(O)ccc1Cl (some centres unmarked) [Example 408] ?
[out] < 10 µM

---

Exercise: state measured MIC for each of the molecules provided.
# Tested on: N. gonorrhoeae MS11
# protocol details: Liquid broth MIC in Fastidious broth
# condition info: Neisseria gonorrhoeae, MS11, read-out: Minimum Inhibitory Concentration (MIC), N. gonorrhoeae MS11

# example entries with known answers
molecule: O=C1CC[C@H](C(=O)NC(C(=O)N[C@H]2Cc3cccc(C(=O)O)c3OB2O)c2ccc(P(=O)(O)O)cc2)N1 (stereo partly drawn)
measurement kind: MIC
result: 1 to 2 µg/mL

molecule: O=C(N[C@@H](C(=O)N[C@H]1Cc2cccc(C(=O)O)c2OB1O)c1ccc(P(=O)(O)O)cc1)c1ccc(C(F)(F)F)cn1 (single isomer, unassigned)
measurement kind: MIC
result: < 1 µg/mL

molecule: O=C(CN1CCN(C(=O)NC(C(=O)N[C@H]2Cc3ccc(F)c(C(=O)O)c3OB2O)c2cc(F)c(O)c(O)c2Cl)C(=O)C1=O)NCc1cccnc1 (stereo partly drawn)
measurement kind: MIC
result: 16 to 32 µg/mL

molecule: O=C(CN1CCN(C(=O)NC(C(=O)N[C@H]2Cc3ccc(F)c(C(=O)O)c3OB2O)c2cc(F)c(O)c(O)c2Cl)C(=O)C1=O)Nc1cccnc1 (stereo partly drawn)
measurement kind: MIC
result: 16 to 32 µg/mL

Here are 4 molecules. What values of MIC were reported for them?
1. O=C1CC[C@@H](C(=O)NC(C(=O)N[C@H]2Cc3cccc(C(=O)O)c3OB2O)c2ccc(P(=O)(O)O)cc2)N1 (stereo partly drawn)
2. O=C(O)c1cccc2c1OB(O)[C@@H](NC(=O)[C@H](NC(=O)c1cnc3sccn3c1=O)c1ccc(P(=O)(O)O)cc1)C2 (single isomer, unassigned)
3. CCN1CCN(C(=O)NC(C(=O)N[C@H]2Cc3cccc(C(=O)O)c3OB2O)c2ccc(CP(=O)(O)O)cc2)C(=O)C1=O (stereo partly drawn)
4. O=C(O)c1cccc2c1OB(O)[C@@H](NC(=O)C(NC(=O)N1CCCNC1=O)c1ccc(P(=O)(O)O)cc1)C2 (stereo partly drawn)

[out]
1. 4 to 8 µg/mL
2. 4 to 8 µg/mL
3. < 1 µg/mL
4. 1 to 2 µg/mL

Here are 4 molecules. What values of MIC were reported for them?
1. CN1CCC[C@H]1C(=O)NC(C(=O)N[C@H]1Cc2cccc(C(=O)O)c2OB1O)c1ccc(P(=O)(O)O)cc1 (stereo partly drawn)
2. CCN1CCN(C(=O)N[C@@H](C(=O)N[C@H]2Cc3ccc(F)c(C(=O)O)c3OB2O)c2ccc(P(=O)(O)O)cc2)C(=O)C1=O (single isomer, unassigned)
3. O=C(O)c1cccc2c1OB(O)[C@@H](NC(=O)[C@H](NC(=O)N1CCCCC1=O)c1ccc(P(=O)(O)O)cc1)C2
4. NC(=O)c1ccc(C(=O)NC(C(=O)N[C@H]2Cc3cccc(C(=O)O)c3OB2O)c2ccc(P(=O)(O)O)cc2)nc1 (stereo partly drawn)

[out]
["16 to 32 µg/mL", "< 1 µg/mL", "1 to 2 µg/mL", "< 1 µg/mL"]

Where do these numbers come from? They come from patent US20240270762A1.
